Biological target: human Proteasome (20S proteasome, chymotryptic activity) (Homo sapiens, UniProt P28074)
Construct: purchased Immatics, Tübingen
Experiment: chymotryptic activity of the 20S proteasome (Suc-LLVT-AMC substrate, fluorescence)
Type: biochemical
Details: unit μm [sic]
Each entry below lists one item and its recorded IC50 value.

compound	IC50
O=C(/C=C/c1ccccc1)NC(/C=N\N1CC(=O)NC1=O)Cc1ccccc1 (stereo not drawn)	2210 nM
COc1cc(C(=O)NC(/C=N/N2CC(=O)NC2=O)Cc2ccccc2)nc(OC)n1 (stereo not drawn)	2960 nM
O=C1CN(/N=C\C(Cc2ccccc2)NC(=O)C2C=Cc3cc(Cl)ccc3O2)C(=O)N1 (stereo not drawn)	3540 nM
